Measured values drawn from PubChem BioAssay (NCI) for this set.

assay_notes: NCI Yeast Anticancer Drug Screen. Data for the mlh1 strain (AID 171)
conditions_used: S. cerevisiae mlh1 strain growth inhibition; at 33.0 µM
About 79,000 compounds went through this panel and 15% of them were active in at least one assay; those are over-represented in the sample as a whole. Calls of active or inactive are those of the source. Rule as the data show it: active = growth inhibition above about 70%; inactive = the rest.
Classes used: active, inactive

| molecule | category_label |
| --- | --- |
| O=P(CCCCP(=O)(c1ccccc1)c1ccccc1)(c1ccccc1)c1ccccc1.[Cl][Sn]([Cl])([c]1ccccc1)[c]1ccccc1 | active |
| COC(=O)C(F)C(Br)C(=O)OC (stereo not given) | active |
| O=[N+]([O-])c1cc(S(=O)(=O)F)ccc1Cl | active |
| c1ccc2cc3n[se]nc3cc2c1 | inactive |
| CCN(CCCl)CCCCNc1c2ccccc2nc2ccc(OC)cc12 | active |
| C/C(=N\N=C(N)N)C(CN1CCOCC1)C(c1ccccc1)c1c(O)c2ccccc2oc1=O (stereo not given) | inactive |
| O=[N+]([O-])O.[NH-]C1CCCCC1[NH-].[NH-]C1CCCCC1[NH-].[NH-]C1CCCCC1[NH-].[OH-].[OH-].[OH-].[Pt+4].[Pt+4].[Pt+4] (stereo not given) | inactive |
| Oc1cccc2nc3ccccc3nc12 | inactive |
| CN(C)CCC(C(=O)C(Br)Br)(c1ccccc1)c1ccccc1 | active |
| C[N+](CCCl)(CCCl)Cc1cccc2cccc([N+](=O)[O-])c12 | inactive |
